Assay: Pharmacokinetic study in SD rats
Format: in vivo
Details: Sprague-Dawley, rat; male SD rats, single dose via oral gavage, plasma
Listed compounds paired with reported AUC(0-inf)
measured metric: AUC(0-inf) (ng·h/mL)

compound | result value
Cc1cc(CC(=O)O)ccc1N1CC[C@H](N[C@H](C)c2cccc3ccccc23)C1 | 36600
C[C@@H](N[C@H]1CCN(c2ccc(CC(=O)O)cc2F)C1)c1cccc2ccccc12 | 34700
C[C@@H](N[C@H]1CCN(c2ccc(CC(=O)O)cc2)C1)c1cccc2ccccc12 [Evocalcet, reference compound] | 25400
